The measurements presented in this section are drawn from ChEMBL document CHEMBL1130144.

- target-of-assay: Protein farnesyltransferase (Sus scrofa)
- assay-details: Activity against pig Farnesyltransferase
endpoint-name: pIC50
// pIC50: -log10(molar conc.)

// CC(C)=CCC/C(C)=C/CC/C(C)=C/C(=O)C(F)(F)P(=O)(O)O : pIC50 value = 6.46

====

- target-of-assay: Protein farnesyltransferase (Rattus norvegicus, UniProt Q02293+Q04631)
- assay-details: Activity against rat Farnesyltransferase
- Assay type: protein-complex assay
// IC50 lookup, one value per entry
Lab book: enter the figure in nM, no units written.

Check out these entries, answers already filled in.
CC(C)(C)[C@H](NC[C@@H](N)CS)C(=O)N1Cc2ccccc2C[C@H]1C(=O)N[C@@H](CCC(N)=O)C(=O)O; 2.8
COC(=O)[C@H](CCSC)NC(=O)[C@@H]1Cc2ccccc2CN1C(=O)[C@@H](NC[C@@H](N)CS)C(C)(C)C; 85
CSCC[C@H](NC(=O)[C@@H]1Cc2ccccc2CN1C(=O)[C@@H](NCCc1cnc[nH]1)C(C)C)C(=O)O; 0.79

Observed IC50, Protein farnesyltransferase (Rattus norvegicus, UniProt Q02293+Q04631), CSCCC(NC(=O)CN1C(=O)[C@H](N(C)C(=O)[C@H](N)CS)NC(c2ccccc2)c2ccccc21)C(=O)O (stereo not given in full) : 0.79

Observed IC50, Protein farnesyltransferase (Rattus norvegicus, UniProt Q02293+Q04631), COC(=O)C(CCSC)NC(=O)CN1C(=O)[C@H](N(C)C(=O)[C@H](N)CS)NC(c2ccccc2)c2ccccc21 (stereo not given in full) : 0.85

====

- target-of-assay: Protein farnesyltransferase (Homo sapiens, UniProt P49354+P49356)
- assay-details: Activity against human Farnesyltransferase
- Assay type: protein-complex assay
// pIC50 lookup, one value per entry
// pIC50: -log10(molar conc.)

Check out these entries, answers already filled in.
CCC(CC(C)C(=O)O)C(=O)CC/C1=C/C(C)C/C(C)=C/C(C)C(O)C(C)CCC(CCCC/C=C/C(C)CCC(C)OC(=O)CC(CC(=O)O)C(=O)O)OC(=O)CC(C(=O)O)CC(=O)OC1 (centres undefined); 6.64
CCCCCCCC/C=C\CCCCCC/C(C(=O)O)=C(\C)C(=O)O; 6.72
CCC/C=C\c1ccccc1/C=C/C(=O)N[C@H](Cc1ccc(O)cc1)C(=O)N(C)C(Cc1ccc(OC)c(O)c1Cl)C(=O)N(C)[C@@H](Cc1ccccc1)C(=O)OC[C@@H]1NC(=O)CNC1=O (some centres undefined); 7.00

Please find the next compound below.
// CCCCCCCCCCCCCC/C(C(=O)O)=C(\C)C(=O)O : pIC50 value = 7.22

====

- target-of-assay: Geranylgeranyl transferase type I (Homo sapiens, UniProt P49354+P53609)
- assay-details: Activity against Geranylgeranyl transferase type I
// pIC50 lookup, one value per entry
// pIC50: -log10(molar conc.)

Check out these entries, answers already filled in.
COC(=O)[C@H](CCSC)NC(=O)[C@@H]1Cc2ccccc2CN1C(=O)[C@@H](NC[C@@H](N)CS)C(C)(C)C; 6.70
COCC[C@@H]1CN(C(=O)c2cccc3ccccc23)CCN1C[C@H](N)CS; 5.00

// CC(C)(C)[C@H](NC[C@@H](N)CS)C(=O)N1Cc2ccccc2C[C@H]1C(=O)N[C@@H](CCC(N)=O)C(=O)O : pIC50 value = 5.85
